Exercise: state measured pKd for each of the binders provided.
study_target: TRAF7-pY275mod
method_summary: fluorescence polarization
Answers are plain numbers, as −log10 of the molar value.

Here is how some binders turned out for pKd.
[[record]]
binder = "S10A K15L (designed binder) MKIEEHHHHHHSSGRENLYFQGGAAQPAAPVDSIQAEEWYFGKLGRKDAERQLLSFGNPRGTFLIRESETTKGAYALSIRDWDDMKGDHVKHYLIRKLDNGGYYITTRAQFETLQQLVQHYSERAAGLSSRLVVPSHKGAAA"
val = 6.32

[[record]]
binder = "T8V K15L (designed binder) MKIEEHHHHHHSSGRENLYFQGGAAQPAAPVDSIQAEEWYFGKLGRKDAERQLLSFGNPRGTFLIRESETVKGAYSLSIRDWDDMKGDHVKHYLIRKLDNGGYYITTRAQFETLQQLVQHYSERAAGLSSRLVVPSHKGAAA"
val = 6.35


Return reported pKd values for all items listed beneath this line.
1. S10V (designed binder) MKIEEHHHHHHSSGRENLYFQGGAAQPAAPVDSIQAEEWYFGKLGRKDAERQLLSFGNPRGTFLIRESETTKGAYVLSIRDWDDMKGDHVKHYKIRKLDNGGYYITTRAQFETLQQLVQHYSERAAGLSSRLVVPSHKGAAA
2. none (wild-type) (other) MKIEEHHHHHHSSGRENLYFQGGAAQPAAPVDSIQAEEWYFGKLGRKDAERQLLSFGNPRGTFLIRESETTKGAYSLSIRDWDDMKGDHVKHYKIRKLDNGGYYITTRAQFETLQQLVQHYSERAAGLSSRLVVPSHKGAAA

1: 5.35; 2: 5.22
